Quick reference: pKd of the listed items.
- test.target: HLA-A*26:01
- assay.info: IEDB peptide-MHC binding, purified MHC/competitive/radioactivity; filed as Kd, often an IC50 or EC50 that approximates it; bounds were set here for any values at or beyond the usual limits of such assays
- run.parameters: source organism: Mammarenavirus juninense
pKd: −log10 of the molar value.

>  <construct.sequence>
RCWLIKNNSY

>  <pKd>
≤ 4.16

$$$$

Record `LDHVNTLHF` . Reported pKd: ≤ 4.11

====

- test.target: HLA-B*39:01
- assay.info: IEDB peptide-MHC binding, purified MHC/competitive/fluorescence; filed as Kd, often an IC50 or EC50 that approximates it; bounds were set here for any values at or beyond the usual limits of such assays
- run.parameters: source organism: Vibrio vulnificus YJ016
assay.metric: Kd

The recorded Kd for entry `GMWCVLASR` equals ≥ 20 µM

====

- test.target: HLA-B*07:02
- assay.info: IEDB peptide-MHC binding, purified MHC/competitive/fluorescence; filed as Kd, often an IC50 or EC50 that approximates it; bounds were set here for any values at or beyond the usual limits of such assays
- run.parameters: source organism: Shigella flexneri 5 str. 8401
assay.metric: pKd
Scale for pKd: -log10 of concentration given in mol/L; no unit attached.

`KVHLTPAQL` on HLA-B*07:02 gives pKd = 6.81

====

- test.target: HLA-A*03:01
- assay.info: IEDB peptide-MHC binding, purified MHC/direct/fluorescence; filed as Kd, often an IC50 or EC50 that approximates it; bounds were set here for any values at or beyond the usual limits of such assays
- run.parameters: source organism: Yersinia pestis Antiqua
pKd: −log10 of the molar value.
assay.metric: pKd

For `FQLYSDLAH` on HLA-A*03:01, measured pKd was ≤ 4.70

====

- test.target: HLA-A*26:01
- assay.info: IEDB peptide-MHC binding, purified MHC/direct/fluorescence; filed as Kd, often an IC50 or EC50 that approximates it; bounds were set here for any values at or beyond the usual limits of such assays
- run.parameters: source organism: Escherichia coli O157:H7
assay.metric: Kd

Kindly note the recorded Kd for `YLGTPNNTY` , which is ≥ 20 µM

====

- test.target: HLA-A*23:01
- assay.info: IEDB peptide-MHC binding, purified MHC/competitive/fluorescence; filed as Kd, often an IC50 or EC50 that approximates it; bounds were set here for any values at or beyond the usual limits of such assays
- run.parameters: source organism: Vibrio vulnificus YJ016
assay.metric: Kd

`SVFELSNFA` has a reported Kd of ≥ 5 µM

====

- test.target: HLA-A*02:01
- assay.info: IEDB peptide-MHC binding, purified MHC/direct/fluorescence; filed as Kd, often an IC50 or EC50 that approximates it; bounds were set here for any values at or beyond the usual limits of such assays
- run.parameters: source organism: Homo sapiens
assay.metric: Kd (nM)
Supply the numeric figure in nM, leaving out any unit text.

Kd in this record for `PLTYLEYPI` : 2860

====

- test.target: HLA-B*08:01
- assay.info: IEDB peptide-MHC binding, purified MHC/direct/fluorescence; filed as Kd, often an IC50 or EC50 that approximates it; bounds were set here for any values at or beyond the usual limits of such assays
- run.parameters: source organism: Escherichia coli O157:H7
assay.metric: Kd

The sequence listed as `YLGTPNNTY` shows Kd equal to ≥ 20 µM

Values were extracted from the Immune Epitope Database (IEDB).
